target_system: T1, human IL-17A (human, UniProt Q16552 24-155)
T1 construct: secreted form (GenBank U32659) expressed in Hek293 with C-terminal 6-His; also called hIL-17A; IL-17A-6HIS
T1 sequence (Q16552 other isoform, or with tags, fused parts or gaps): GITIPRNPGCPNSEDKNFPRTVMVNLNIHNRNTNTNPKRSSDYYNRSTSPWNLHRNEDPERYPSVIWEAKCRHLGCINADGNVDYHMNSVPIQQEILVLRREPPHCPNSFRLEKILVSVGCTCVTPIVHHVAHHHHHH
protocol_summary: AlphaScreen IL-17A-IL-17RA, average

binder | IC50 [pM]
IL17MS3010 (VHH, name in Kabat numbering, also called IL17MS3010 basic) VHH: EVQLVESGGGLVQPGGSQRLSCTASGTIVNIHVMGWYRQAPGKQRELVALIFSGGSADYADSVKGRFTISRDNSKNTVYLQMNSLRAEDTAVYYCAAEIGYYSGGTYYSSEAHWGQGTLVTVSS | 184
IL17MS3011 (VHH, name in Kabat numbering, basic + Q18L; Kabat positions) VHH: EVQLVESGGGLVQPGGSLRLSCTASGTIVNIHVMGWYRQAPGKQRELVALIFSGGSADYADSVKGRFTISRDNSKNTVYLQMNSLRAEDTAVYYCAAEIGYYSGGTYYSSEAHWGQGTLVTVSS | 139
04G01 (VHH, Class 2; also called IL17MS04G01) VHH: EVQLVESGGGLVQAGGSQRLSCTASGTIVNIHVMGWYRQAPGKQRELVALIFSGGSADYADSVKGRFTISRDNAKNTVYLEMNSLKAEDTAVYYCAAEIGYYSGGTYYSSEAHWGQGTQVTVSS | 93
IL17MS3015 (VHH, name in Kabat numbering, basic + Q18L, A84P; Kabat positions) VHH: EVQLVESGGGLVQPGGSLRLSCTASGTIVNIHVMGWYRQAPGKQRELVALIFSGGSADYADSVKGRFTISRDNSKNTVYLQMNSLRPEDTAVYYCAAEIGYYSGGTYYSSEAHWGQGTLVTVSS | 171
IL17MS3016 (VHH, name in Kabat numbering, basic + T23A, A84P; Kabat positions) VHH: EVQLVESGGGLVQPGGSQRLSCAASGTIVNIHVMGWYRQAPGKQRELVALIFSGGSADYADSVKGRFTISRDNSKNTVYLQMNSLRPEDTAVYYCAAEIGYYSGGTYYSSEAHWGQGTLVTVSS | 177
IL17MS3012 (VHH, name in Kabat numbering, basic + T23A; Kabat positions) VHH: EVQLVESGGGLVQPGGSQRLSCAASGTIVNIHVMGWYRQAPGKQRELVALIFSGGSADYADSVKGRFTISRDNSKNTVYLQMNSLRAEDTAVYYCAAEIGYYSGGTYYSSEAHWGQGTLVTVSS | 101
IL17MS3017 (VHH, name in Kabat numbering, basic + Q18L, T23A, A84P; Kabat positions) VHH: EVQLVESGGGLVQPGGSLRLSCAASGTIVNIHVMGWYRQAPGKQRELVALIFSGGSADYADSVKGRFTISRDNSKNTVYLQMNSLRPEDTAVYYCAAEIGYYSGGTYYSSEAHWGQGTLVTVSS | 163
IL17MS3013 (VHH, name in Kabat numbering, basic + A84P; Kabat positions) VHH: EVQLVESGGGLVQPGGSQRLSCTASGTIVNIHVMGWYRQAPGKQRELVALIFSGGSADYADSVKGRFTISRDNSKNTVYLQMNSLRPEDTAVYYCAAEIGYYSGGTYYSSEAHWGQGTLVTVSS | 81
